Target or test system: human glucagon receptor (human, UniProt P47871 26-477)
Sequence (P47871 26-477): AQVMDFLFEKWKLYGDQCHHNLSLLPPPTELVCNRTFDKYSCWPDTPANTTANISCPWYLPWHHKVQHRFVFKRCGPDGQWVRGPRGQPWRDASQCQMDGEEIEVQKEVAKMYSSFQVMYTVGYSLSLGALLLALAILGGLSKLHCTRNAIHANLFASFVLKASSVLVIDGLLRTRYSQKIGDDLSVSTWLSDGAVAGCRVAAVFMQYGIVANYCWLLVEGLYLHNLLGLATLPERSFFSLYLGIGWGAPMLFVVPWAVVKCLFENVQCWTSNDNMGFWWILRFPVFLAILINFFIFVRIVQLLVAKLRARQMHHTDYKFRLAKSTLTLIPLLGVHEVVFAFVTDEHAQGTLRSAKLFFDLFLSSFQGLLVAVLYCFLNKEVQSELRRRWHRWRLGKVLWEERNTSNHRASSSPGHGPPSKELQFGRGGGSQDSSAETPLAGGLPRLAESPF
Test: cell-based or functional assay
Bridge positions count the residues as written; N and C are the ends. Square brackets hold non-standard residues; d marks the D form. Ends that are not written are not given here. PhLac = O=C(O)[C@@H](O)Cc1ccccc1
Measurement name: Glucagon antagonism IC50 (inhibit 0.8 nM glucagon) (nM)
I only need the number, in nM, no unit after it.

Below, 6 binders whose answers are already recorded.
Binder	Numeric readout
[PhLac]TSEYSKYLDSRRAQDFVQWLMNT-NH2 (lactam 4-7) [[PLA6, E9K12(Lactam)] G(6-29)]	72.5
SQGT[PhLac]TSDYSKYLDERRAKDFVQWLMDT-NH2 (lactam 15-19; also: ester (depsipeptide) bond Thr5-PLA6) [[S2Q3-O-PLA6, D9, E16K20(Lactam), D28] G(2-29)]	20.9
SQGTFTSEYSKYLDERRAKDFVQWLMDT-NH2 (lactam 15-19) [[S2Q3, E9, E16K20(Lactam), D28] G(2-29)]	23.4
AEGT[PhLac]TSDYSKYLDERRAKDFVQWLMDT-NH2 (lactam 15-19; also: PLA6 linked to Thr5 by an ester bond (depsipeptide)) [[A2E3-O-PLA6, D9, E16K20(Lactam), D28] G(2-29)]	21.8
[PhLac]TSEYSKYLDSRRAQDFVQWLMNT-NH2 (also called [PLA6, E9]; G(6-29); [PLA6, E9]Glucagon(6-29)) [[PLA^6, E^9]Glucagon(aa6-29)-NH2]	94.7
[PhLac]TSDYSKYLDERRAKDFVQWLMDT-NH2 (lactam 11-15) [[PLA6, E16K20(lactam), D28]G(6-29)]	20.3

Req: Glucagon antagonism IC50 (inhibit 0.8 nM glucagon) lookup needed for AEGTFTSEYSKYLDERRAKDFVQWLMDT-NH2 (lactam 15-19) [[A2E3, E9, E16K20(Lactam), D28]G(2-29)] , thanks.
Resp: 151
